TARGET_OR_SYSTEM: kappa opioid receptor (OPRK1) (Homo sapiens (Human), UniProt P41145)
Sequence (P41145 whole entry): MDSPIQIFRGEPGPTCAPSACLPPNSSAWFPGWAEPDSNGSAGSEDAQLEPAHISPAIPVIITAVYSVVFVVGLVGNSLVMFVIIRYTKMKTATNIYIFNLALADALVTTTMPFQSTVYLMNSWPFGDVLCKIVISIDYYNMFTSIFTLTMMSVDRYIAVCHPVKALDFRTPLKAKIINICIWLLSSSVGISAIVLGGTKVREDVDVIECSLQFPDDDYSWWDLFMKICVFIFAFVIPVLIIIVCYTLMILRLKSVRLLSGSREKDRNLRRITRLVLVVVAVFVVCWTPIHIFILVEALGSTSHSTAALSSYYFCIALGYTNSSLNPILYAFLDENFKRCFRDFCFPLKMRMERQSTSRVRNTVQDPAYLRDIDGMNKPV
ASSAY_INFO: OPRK1 antagonist assay (b-arrestin-2-TEV / b-lactamase reporter, EC80 U-50488 challenge)
CONDITION_PARAMETERS: OPRK1 antagonist assay vs EC80 U-50488
MEASURED_ATTRIBUTE: IC50

Worked examples, 2 molecules total:
{"ITEM_SMILES": "COC(=O)c1cnc(N2CCC(NC3CCCCC3)CC2)c(NS(C)(=O)=O)c1", "IC50": "> 10 µM"}
{"ITEM_SMILES": "COC(=O)c1cc(Br)cnc1N1CCC(CN)CC1", "IC50": "> 10 µM"}

Next molecule, IC50 to be filled in.
Field: IC50 (kappa opioid receptor (OPRK1) (Homo sapiens (Human), UniProt P41145)). Entry: "Cc1ccc2nc(NCCCNC3CCOCC3)c(-c3nc(C)no3)cc2c1" > 10 µM
